# SYSTEM: HIV-1 APV17 envelope glycoprotein (Env) (HIV-1)
# TEST_DESCRIPTION: cell-based or functional assay
Consider the following binders; for each one, report its IC50 neutralization.
Give bare numbers, in µg/mL.

Study these solved cases before continuing.
BINDER: PGT-125 (antibody, V domains shown) VH: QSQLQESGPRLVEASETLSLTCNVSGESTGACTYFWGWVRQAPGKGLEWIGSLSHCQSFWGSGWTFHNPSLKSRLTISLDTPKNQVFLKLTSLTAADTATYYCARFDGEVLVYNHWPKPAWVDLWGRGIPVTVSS VL: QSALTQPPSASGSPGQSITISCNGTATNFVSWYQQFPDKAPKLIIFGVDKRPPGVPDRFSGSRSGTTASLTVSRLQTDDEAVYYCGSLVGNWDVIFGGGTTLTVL
MEASUREMENT_NAME: IC50 neutralization
READING_UNIT: µg/mL
VALUE_MEASURED: 7.31
//
BINDER: PGT-126 (antibody, V domains shown) VH: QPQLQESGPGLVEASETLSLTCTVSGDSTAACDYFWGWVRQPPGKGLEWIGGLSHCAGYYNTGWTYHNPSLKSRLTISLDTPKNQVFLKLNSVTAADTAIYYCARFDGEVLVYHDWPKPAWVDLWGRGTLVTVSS VL: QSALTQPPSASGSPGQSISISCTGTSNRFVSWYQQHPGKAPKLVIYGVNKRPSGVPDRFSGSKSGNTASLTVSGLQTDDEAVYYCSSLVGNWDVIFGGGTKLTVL
MEASUREMENT_NAME: IC50 neutralization
READING_UNIT: µg/mL
VALUE_MEASURED: 0.501

Consider the record given below.
Please give the documented IC50 neutralization of PGT-123 (antibody, V domains shown) VH: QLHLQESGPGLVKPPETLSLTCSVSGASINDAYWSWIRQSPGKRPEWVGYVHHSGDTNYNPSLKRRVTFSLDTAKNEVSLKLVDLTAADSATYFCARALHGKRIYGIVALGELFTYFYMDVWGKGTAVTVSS VL: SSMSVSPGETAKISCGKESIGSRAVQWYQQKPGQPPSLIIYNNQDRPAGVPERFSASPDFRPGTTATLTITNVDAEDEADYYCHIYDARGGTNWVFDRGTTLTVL 0.18
